All figures here come from ChEMBL document CHEMBL5608109.

- Tested on: Hepatocyte spheroids
- Assay comment: This assay model using primary human hepatocyte (PHH) spheroids, which are cultured in Williams E medium. After spheroid formation, cells are exposed to compounds in an FBS-free culture medium. […] Imaging is performed on an Opera Phenix High-Content Screening System, allowing quantification of proliferation as a readout for evaluating the effects of chemical probes on hepatocyte regeneration.
- Assay type: functional
- Study conditions: Concentration 10 uM, read-out: Cell Viability
Recorded endpoint: viability at 10 µM

Sample answers from the record:
{"Compound": "O=C1c2ccc(Nc3ccc(F)cc3F)cc2CCc2ccc(OC[C@H](O)CO)cc21 [Skepinone-L]", "viability at 10 µM": "16.2% (toxic)"}
{"Compound": "CNC(=O)c1cc(C(=O)NC2CC2)cn(Cc2ccccc2)c1=O [GSK620]", "viability at 10 µM": "85.9% (non-toxic)"}
{"Compound": "COCCc1ccc(-c2c(C)nc3c(N4CCOCC4)ccnn23)cn1 [JNJ-42396302]", "viability at 10 µM": "160% (non-toxic)"}
{"Compound": "Cc1c(NC(=O)c2cc(C(N)=O)nc3cc(F)ccc23)c(C(F)(F)F)nn1Cc1ccc(C#N)cc1 [BAY-876]", "viability at 10 µM": "21.4% (toxic)"}
{"Compound": "N#CN1CC[C@H](C(=O)Nc2nc3c(s2)CN(C(=O)CN=[N+]=[N-])CC3)C1 [8RK64]", "viability at 10 µM": "70.7% (toxic)"}

Considering `O=C(O)c1cc(-c2ccc(C3CCNCC3)cc2)c2ccc(-c3ccc(C(F)(F)F)cc3)cc2c1` , its viability at 10 µM with Hepatocyte spheroids was recorded as 1.07% (toxic)

Simply: O=c1nc(-c2ccccn2)sc2ccccc12 [BTZO-1] , Hepatocyte spheroids, viability at 10 µM = 73.5% (non-toxic)

// viability at 10 µM (Hepatocyte spheroids) for COCc1nc2cnc3cc(-c4c(C)noc4C)c(OC[C@H]4CCNC4)cc3c2n1[C@H](C)c1ccccc1 [GSK778] = 64% (toxic)

Response field viability at 10 µM (Hepatocyte spheroids) for item C[C@@H](NC(=O)Nc1cc2[nH]ncc2c(CO)n1)c1ccccc1 [ERKi] : 75.2% (non-toxic)
